System: HOP-92 NSCLC
METHOD DESCRIPTION: NCI-60 one-dose screen, 48 h
PROTOCOL CONDITIONS: 10 µM unless noted
Description: Growth inhibition of the HOP-92 human Non-Small Cell Lung tumor cell line is measured as a screen for anti-cancer activity. Cells are grown in 96 well plates and exposed to the test compound for 48 hours. Compounds are tested at a single concentration, which is 10^-5 M for most compounds. The reported endpoint is percent growth (GI% or GIPRCNT), where numbers from 0 - 100% represent growth inhibition, and numbers from -100% - 0 represent cell death. […]
The panel holds about 83,000 compounds, 20% with a hit somewhere; the sample as a whole holds those more often. Calls of active or inactive are those of the source. The calls were made as follows: active = growth percent below 10; inactive = the rest.
Use one of these outcomes when replying: active, inactive

INSERT INTO measurements (compound, classification) VALUES
  ('CC(=O)Oc1ccc(/C=N/NC(N)=S)nc1', 'inactive'),
  ('CCN(CC)CCOc1ccc(NC(=O)C(C(C)C)N2C(=O)/C(=C/c3ccc(Br)cc3)SC2=S)cc1 (stereo not given)', 'inactive'),
  ('Cc1nnc2c(Cc3ccccc3)nc3ccccc3n12', 'inactive'),
  ('COc1cc(/C=N/NC(=O)c2cnn3c2NC(c2ccccc2)C3)ccc1Oc1ccccc1 (stereo not given)', 'inactive'),
  ('CCOC(=O)c1cc(C(=O)c2ccc(OC)cc2)n2ccc(/C=C/c3cc[n+](CC(=O)c4ccc(OC)cc4)cc3)cc12', 'inactive');

Called result for CCN(CC)CCn1c(=O)c2cc(OC)c(OC)cc2c2ccc3cc4c(cc3c21)OCO4 inactive

Called result for C=C1C(=O)O[C@H]2[C@H]1CC/C(COC(=O)NCc1c[nH]c3ccc(Br)cc13)=C\CC[C@@]1(C)O[C@@H]21 active

----------
Tested on: CAKI-1 renal
METHOD DESCRIPTION: NCI-60 one-dose screen, 48 h
PROTOCOL CONDITIONS: 10 µM unless noted
The panel holds about 83,000 compounds, 20% with a hit somewhere; the sample as a whole holds those more often. Active and inactive are the calls of the source. Rule for the calls: active = growth percent below 10; inactive = the rest.
Use one of these outcomes when replying: True = active, False = inactive

# count of solved cases: 3
INSERT INTO measurements (smiles_data, classification) VALUES
  ('CCCN1[C@@H]2CC[C@H]1/C(=C\c1ccc(OC)c(OC)c1)C(=O)/C2=C/c1ccc(OC)c(OC)c1', 'False'),
  ('N#CC(C#N)=Cc1cc2ccccc2nc1Oc1ccc(C(F)(F)F)cc1', 'False'),
  ('Nc1ccccc1NC(=O)c1ccc(-n2nc(-c3ccccc3)c3ccccc32)cc1', 'False');

Called result for O=S(=O)(NCCNc1nccc(-c2c(-c3cccc(F)c3)nc3sccn23)n1)c1ccc(Cl)cc1 False

Called result for COc1cc(/C(C)=C(\c2ccc(Cl)cc2)c2ccc(OCCN3CCCC3)cc2)ccc1F False

Called result for O=C(Nc1ccccc1C(=O)N/N=C(\c1ccccc1)c1ccccn1)c1ccc(F)cc1 True

Called result for c1ccc2c(-c3nccs3)c[nH]c2c1 False

----------
Tested on: HT29 colon
METHOD DESCRIPTION: NCI-60 one-dose screen, 48 h (100 = growth as untreated, 0 = no growth, -100 = all killed)
PROTOCOL CONDITIONS: 10 µM unless noted
Compounds without any hit were thinned out: in the full panel of roughly 83,000, 20% have a hit.
ENDPOINT: growth (%)
Report the figure in % without appending any unit label.

Please review the entries below; each comes with its answer.
INSERT INTO measurements (compound, measured_on, test_value) VALUES
  ('NS(=O)(=O)c1ccc(CCN2C(=O)c3cc(Cl)c(Cl)cc3C2=O)cc1', 'HT29 colon', 89.3),
  ('CC1(C)NCCC[C@]2(C)[C@H]3CC(=O)[C@H]4[C@@H]5C[C@](C)(CO)CC[C@]5(C)CC[C@@]4(C)[C@]3(C)CC[C@@H]12', 'HT29 colon', 69.8),
  ('O=S(=O)(NCCNc1nccc(-c2c(-c3cccc(F)c3)nc3sccn23)n1)c1ccccc1', 'HT29 colon', 23.2),
  ('COc1ccc(C(=O)C2C(C#N)C(C#N)C3c4ccccc4C=CN23)cc1 (stereo not drawn)', 'HT29 colon', 84.4),
  ('C=C(C)[C@@H]1CC[C@]2(C(=O)N[C@H](CO)Cc3ccccc3)CC[C@]3(C)[C@H](CC[C@@H]4[C@@]5(C)CCCNC(C)(C)[C@@H]5CC[C@]43C)[C@@H]12', 'HT29 colon', -86.1);

The reported growth of the compound C=C1C(=O)O[C@H]2[C@H]1CC/C(COC(=O)NCc1c[nH]c3ccc(F)cc13)=C\CC[C@@]1(C)O[C@@H]21 was -50.2

The reported growth of the compound CCOC(=O)C1=C(CCl)NC(=O)NC1c1ccc2c(c1)OCO2 (stereo not drawn) was 6.92

The reported growth of the compound NC(=NCc1ccccc1)C(N=Nc1ccccc1)C(=O)NCc1ccccc1 (stereo not drawn) was 18.3
